// provenance: the supplement of paper PMC10065799

- assayedSystem: EPHB2 (UniProt P29323)
- Sequence (P29323 whole entry, looked up): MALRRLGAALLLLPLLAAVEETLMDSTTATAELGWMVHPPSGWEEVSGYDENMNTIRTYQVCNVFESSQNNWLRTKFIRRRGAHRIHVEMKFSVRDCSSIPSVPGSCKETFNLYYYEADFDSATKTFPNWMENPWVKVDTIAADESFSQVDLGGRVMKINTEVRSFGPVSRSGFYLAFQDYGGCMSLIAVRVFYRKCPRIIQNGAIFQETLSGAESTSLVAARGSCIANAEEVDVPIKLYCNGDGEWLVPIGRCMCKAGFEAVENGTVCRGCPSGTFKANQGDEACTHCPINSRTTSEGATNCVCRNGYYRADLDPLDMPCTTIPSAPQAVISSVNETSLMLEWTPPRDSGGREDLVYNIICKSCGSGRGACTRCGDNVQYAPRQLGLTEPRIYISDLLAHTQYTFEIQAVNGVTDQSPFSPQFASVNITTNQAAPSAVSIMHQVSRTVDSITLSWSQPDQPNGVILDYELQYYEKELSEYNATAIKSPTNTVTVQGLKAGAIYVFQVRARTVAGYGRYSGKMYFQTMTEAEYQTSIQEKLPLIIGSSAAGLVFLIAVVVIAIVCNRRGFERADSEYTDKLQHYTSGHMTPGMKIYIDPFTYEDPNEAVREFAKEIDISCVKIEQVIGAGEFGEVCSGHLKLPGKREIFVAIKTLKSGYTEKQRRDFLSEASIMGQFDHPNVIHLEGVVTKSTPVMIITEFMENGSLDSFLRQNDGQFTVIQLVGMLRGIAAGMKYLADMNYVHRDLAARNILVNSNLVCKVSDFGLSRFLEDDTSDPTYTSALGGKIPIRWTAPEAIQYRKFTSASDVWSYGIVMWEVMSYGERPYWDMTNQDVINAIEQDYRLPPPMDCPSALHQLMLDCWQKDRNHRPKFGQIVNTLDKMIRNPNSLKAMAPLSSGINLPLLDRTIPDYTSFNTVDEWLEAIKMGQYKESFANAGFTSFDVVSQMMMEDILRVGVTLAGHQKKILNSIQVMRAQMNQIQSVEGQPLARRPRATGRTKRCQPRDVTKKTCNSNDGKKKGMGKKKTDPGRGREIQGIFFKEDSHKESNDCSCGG
- protocol: phosphorylation enrichment, bacterial display (enrichment ratio); higher = better substrate or ligand; peptides without Tyr show the background;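 note: 11-residue human phosphosite peptides and single-mutation variants displayed on the E. coli surface, counted by deep sequencing, each peptide's frequency after selection divided by its frequency in the unselected input library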;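 note: frequency after pTyr selection over input frequency; kinase dosed for 20-30% of maximal phosphorylation in three min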
Entries and their phosphorylation enrichment values follow.
Reply briefly: the number, and no unit.

sequenceData | assayedSystem | measurement
EAKENYGKTLK [CHL1_Y291_T287A] | EPHB2 (UniProt P29323) | 0.314
PPPPAYDDVAQ [TNK2_Y635] | EPHB2 (UniProt P29323) | 0.669

## Task Any idea what its phosphorylation enrichment is? The sequence is ARAHKYHGGGG [HBB_Y146_L142R]
## Result 0.273

## Task Entry KHMADYPDFKF [SOX11_Y113_YF] : reported phosphorylation enrichment = ?
## Result 0.496

## Task Name the recorded phosphorylation enrichment for TSFSGYRFHRH [NKAPL_Y94_YF] .
## Result 0.471

## Task Quick one: phosphorylation enrichment for NQILPYIEELV [PPP2R1B_Y341_K343E] ?
## Result 0.644

## Task Entry SNSATYSGSVA [PDLIM5_Y382] : reported phosphorylation enrichment = ?
## Result 0.497

## Task # get_value(readout='phosphorylation enrichment', item= APVEDYGGGGG [B4GALT6_Y382_I379V] )
## Result 0.552

## Task Field request: phosphorylation enrichment | item: RLLVVYPWTKR [HBB_Y36_Q40K]
## Result 0.678

## Task Reported phosphorylation enrichment for RFLERYIYNRQ [HLA-DPB1_Y57_E62Q] : what is it?
## Result 0.907

## Task Entry SRIWVYNHYRC [BRCA2_Y2621_W2626C] : reported phosphorylation enrichment = ?
## Result 0.587

## Task For EFLQKYKGFKI [SYNE1_Y6953_YF] , what is its reported phosphorylation enrichment?
## Result 0.477

## Task Please look up its phosphorylation enrichment: RETSLYKACER [ASB2_Y162_P160S]
## Result 0.609

----------
- assayedSystem: Fyn (UniProt P06241)
- Sequence (P06241 whole entry, looked up): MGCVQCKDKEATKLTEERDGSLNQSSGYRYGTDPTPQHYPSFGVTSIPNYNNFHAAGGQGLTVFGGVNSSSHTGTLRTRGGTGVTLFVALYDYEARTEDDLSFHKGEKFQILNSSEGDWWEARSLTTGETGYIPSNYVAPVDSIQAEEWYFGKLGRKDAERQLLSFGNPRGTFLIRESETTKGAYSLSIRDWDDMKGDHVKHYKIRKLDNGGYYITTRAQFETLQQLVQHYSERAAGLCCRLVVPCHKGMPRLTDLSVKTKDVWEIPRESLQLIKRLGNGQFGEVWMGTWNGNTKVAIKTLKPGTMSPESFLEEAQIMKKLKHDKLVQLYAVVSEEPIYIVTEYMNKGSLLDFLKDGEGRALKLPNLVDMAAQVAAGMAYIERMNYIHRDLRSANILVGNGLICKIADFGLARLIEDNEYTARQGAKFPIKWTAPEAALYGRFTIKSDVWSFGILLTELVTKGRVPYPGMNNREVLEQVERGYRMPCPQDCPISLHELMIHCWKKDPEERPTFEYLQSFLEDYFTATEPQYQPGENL
- protocol: phosphorylation enrichment, bacterial display (enrichment ratio); higher = better substrate or ligand; peptides without Tyr show the background
Overview of recorded phosphorylation enrichment for various sequences
Please reply with the value in numeric form only.

sequenceData | measurement
QRIHDYFEHRF [HCN4_Y554_YF] | 0.479

## Task Sample RGDCMYASLLG [AR_Y269_P271S] — what was its phosphorylation enrichment?
## Result 6.63

## Task Reported phosphorylation enrichment, sequence LERYIYNREEL [HLA-DPB1_Y59_F64L] : ____
## Result 0.987

## Task Reported phosphorylation enrichment for KDHPDYKFQLR [SOX10_Y171_P175L_YF] : what is it?
## Result 0.409

## Task Form field: reported phosphorylation enrichment of ETELPYQELQG [TYROBP_Y91_S89L]
## Result 0.737

## Task Tell me the measured phosphorylation enrichment of DAVKHYMQFQK [CNGA2_Y395_R399Q] , please.
## Result 0.429

## Task Which phosphorylation enrichment is listed for FMKEPYIQSRF [HIPK4_Y175_V171M_YF] ?
## Result 0.332

## Task Request the reported phosphorylation enrichment associated with MQMEEYRGWVE [BTNL2_Y91]
## Result 0.409

## Task What value of measured phosphorylation enrichment is listed for LSSEMCVKSYT [F5_Y2149_Y2149C] ?
## Result 1.2

## Task Given FRTPGYREVVI [TNS2_Y673_A670T_YF] , state its recorded phosphorylation enrichment.
## Result 0.411

## Task Can you look up the measured phosphorylation enrichment of SRPHLYGTPSR [ADGRE2_Y670] for me?
## Result 0.615

## Task Fill in: phosphorylation enrichment of CNRADYSKLAS [GNE_Y22_P27S] is ___
## Result 0.377

## Task For the sequence shown here, FEDALYTVLHR [UNC13D_Y61_YF] , give the reported phosphorylation enrichment.
## Result 9.12

## Task Fill in the blank: the reported phosphorylation enrichment of SVVVPYELPEV [TP53_Y220_P222L] is ____.
## Result 0.503

## Task Quick check: phosphorylation enrichment of TEAGNYKLCFD [TMED1_Y103_D102N] ?
## Result 0.505

## Task So what does the record say about phosphorylation enrichment for HAVYIYDICHV [TWNK_Y508_V507I] ?
## Result 7.62

## Task Query (sequence): DGQVNYEGFVQ [CALM1_Y139_E141G] ; field requested: phosphorylation enrichment
## Result 0.512

## Task Data request, read-out phosphorylation enrichment, for EDGRLYAVKCS [PKMYT1_Y136_R140C]
## Result 0.589

## Task What measured phosphorylation enrichment goes with PDSVDYRKKGY [CTSK_Y121] ?
## Result 0.749

## Task Given AVLSLYASDRT [ACTA1_Y145_G148D] , state its recorded phosphorylation enrichment.
## Result 0.637
